# run-description: KB-3-1 Cancer Cell Toxicity qHTS against the NCATS CANVASS Library (AID 1347366); further: nearly all actives have a fitted effect of over 75% in size
# test-conditions: KB-3-1 viability, CellTiter-Glo luminescence, 72 h; series mostly up to 46.1 µM
Records with an inconclusive call do not appear. The source made the active and inactive calls. The call rests on the fitted dose curve; in most records, active means well fitted cell-killing curve with a large enough effect; inconclusive means small, poorly fitted or top-dose-only effect; inactive means flat fitted curve, though single readings scatter.
Outcomes: active, inactive

- compound: "CCCC[C@@H]1CC[C@H]2CCCC(CCCO)N12 (stereo partly drawn)"
  discrete-label: "inactive"
- compound: "C=CC(C)(C)[C@@]12C[C@H]3C(=O)N/C(=C/c4cnc[nH]4)C(=O)N3[C@@H]1Nc1ccccc12"
  discrete-label: "inactive"
- compound: "CCCCC1CC[C@H]2CCCC(CCC)N12 (stereo partly drawn)"
  discrete-label: "inactive"
- compound: "C/C=C1/CN2CC[C@@]34c5ccccc5N(C)[C@@H]3[C@@H]2C[C@@H]1[C@H]4C(=O)OC"
  discrete-label: "inactive"
- compound: "CCC(=O)N[C@@H](C[C@H](C)C(Cl)(Cl)Cl)C(=O)N1C(=O)C=C(OC)[C@@H]1C[C@H](C)C(Cl)Cl"
  discrete-label: "inactive"
- compound: "C/C=C1/CN2CC[C@]34C(=C(C(=O)OC)[C@H]1C[C@H]23)Nc1ccccc14"
  discrete-label: "inactive"
- compound: "COC1=C(C2=C(OC)C(=O)c3cc4c(c(O)c3C2=O)C(=O)O[C@H](C)C4)C(=O)c2c(cc3c(c2O)C(=O)O[C@H](C)C3)C1=O"
  discrete-label: "inactive"
- compound: "C/C=C(\\C)C(=O)O[C@@H]1[C@@H](O)[C@@H]2O[C@H]3[C@H](O[C@@H](CCCCC)CCCCCCC(=O)CCC(=O)OC[C@@H](O2)[C@H]1OC(=O)/C=C/c1ccccc1)O[C@H](C)[C@H](OC(C)=O)[C@@H]3O"
  discrete-label: "active"

====

# tgt: Ubiquitin carboxyl-terminal hydrolase 1 (Homo sapiens) (UniProt O94782)
# Sequence (O94782 whole entry, looked up): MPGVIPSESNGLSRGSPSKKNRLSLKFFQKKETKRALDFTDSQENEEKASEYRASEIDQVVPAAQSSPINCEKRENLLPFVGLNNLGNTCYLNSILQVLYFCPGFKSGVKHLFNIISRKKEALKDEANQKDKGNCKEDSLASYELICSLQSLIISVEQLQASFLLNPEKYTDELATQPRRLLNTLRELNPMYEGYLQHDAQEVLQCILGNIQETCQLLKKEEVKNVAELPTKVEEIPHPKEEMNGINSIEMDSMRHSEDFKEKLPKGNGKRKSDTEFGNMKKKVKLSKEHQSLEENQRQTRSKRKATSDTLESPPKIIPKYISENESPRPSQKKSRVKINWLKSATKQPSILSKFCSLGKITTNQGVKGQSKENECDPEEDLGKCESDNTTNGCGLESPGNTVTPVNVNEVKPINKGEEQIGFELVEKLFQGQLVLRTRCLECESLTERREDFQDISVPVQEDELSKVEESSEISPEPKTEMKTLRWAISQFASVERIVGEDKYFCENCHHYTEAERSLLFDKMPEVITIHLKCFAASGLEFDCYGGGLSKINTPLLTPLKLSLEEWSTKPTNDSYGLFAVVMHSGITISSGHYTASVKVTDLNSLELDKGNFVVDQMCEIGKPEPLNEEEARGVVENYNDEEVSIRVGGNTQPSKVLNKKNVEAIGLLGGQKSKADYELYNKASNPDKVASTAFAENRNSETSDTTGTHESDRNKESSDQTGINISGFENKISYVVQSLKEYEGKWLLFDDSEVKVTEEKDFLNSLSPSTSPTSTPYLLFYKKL
# run-description: Inhibitors of USP1/UAF1: Pilot qHTS (AID 504865); further: nearly all actives have a fitted effect of over 35% in size
# test-conditions: purified USP1/UAF1, Ub-rhodamine cleavage fluorescence; series mostly up to 114 µM
Records with an inconclusive call do not appear. The source made the active and inactive calls. Calls come from the whole dose curve; as a rule, active = well fitted inhibition curve with a large enough effect; inconclusive = small, poorly fitted or top-dose-only effect; inactive = flat fitted curve, though single readings scatter.
Outcomes: yes for active, no for inactive

- compound: "CNC(=O)O/N=C/C(C)(C)SC"
  discrete-label: "no"
- compound: "CC[C@H]1C(=O)OC[C@H]1Cc1cncn1C"
  discrete-label: "no"
- compound: "CN1C[C@H](CO)C=C2c3cccc4[nH]cc(c34)C[C@@H]21"
  discrete-label: "yes"
- compound: "COC1=CC(=O)O[C@@H](/C=C\\c2ccccc2)C1"
  discrete-label: "no"
- compound: "O=C1CCCC2C3CC(CN12)C1CCCCN1C3 (stereo unspecified)"
  discrete-label: "no"
- compound: "CC(C)[C@@]1(NC(=O)[C@@H]2C[C@H]3c4cccc5[nH]cc(c45)C[C@@H]3N(C)C2)O[C@]2(O)[C@H]3CCCN3C(=O)CN2C1=O"
  discrete-label: "no"

====

# tgt: Cytochrome P450 3A4 (Homo sapiens)
# run-description: qHTS Assay for Inhibitors and Substrates of Cytochrome P450 3A4 (AID 884); further: nearly all actives have a fitted effect of over 50% in size
# test-conditions: recombinant CYP3A4, Luciferin-PPXE luminescence; series mostly up to 57.1 µM
Records with an inconclusive call do not appear. Active and inactive are the calls of the source. Calls come from the whole dose curve; as a rule, active = well fitted inhibition curve with a large enough effect; inconclusive = small, poorly fitted or top-dose-only effect; inactive = no such curve, though single readings can be large or run the other way.
Outcomes: true = active, false = inactive

- compound: "c1ccc2c(c1)CCCC2"
  tgt: "Cytochrome P450 3A4 (Homo sapiens)"
  discrete-label: "false"
- compound: "C=CC(C)=O"
  tgt: "Cytochrome P450 3A4 (Homo sapiens)"
  discrete-label: "false"
- compound: "CC1(C)C(=O)C=C[C@@]2(C)C1CC(O)[C@]1(C)C2CC[C@@]2(C)C(c3ccoc3)OC(=O)C3O[C@]312 (stereo partly specified)"
  tgt: "Cytochrome P450 3A4 (Homo sapiens)"
  discrete-label: "true"
- compound: "O=C1CCCC2C3CC(CN12)C1CCCCN1C3 (stereo unspecified)"
  tgt: "Cytochrome P450 3A4 (Homo sapiens)"
  discrete-label: "false"
- compound: "CCC(C)C(=O)O[C@@H]1C[C@@]2(C)C(c3ccoc3)OC(=O)CC23OC2(C)O[C@@]14[C@@]1(C)C(CC(=O)OC)C5(C)CC1(O)C(O)(C5OC(=O)C1(C)OC1C)C(OC(C)=O)[C@@]34O2 (stereo partly specified)"
  tgt: "Cytochrome P450 3A4 (Homo sapiens)"
  discrete-label: "true"
- compound: "O=c1cccc2n1CC1CC2CN2CCCCC12 (stereo unspecified)"
  tgt: "Cytochrome P450 3A4 (Homo sapiens)"
  discrete-label: "false"
- compound: "C=CCOC(=O)c1ccccc1N"
  tgt: "Cytochrome P450 3A4 (Homo sapiens)"
  discrete-label: "false"
- compound: "O=C(Nc1cccc(F)c1)N1CC2(CCN(C(=O)Oc3ccccc3)CC2)C1"
  tgt: "Cytochrome P450 3A4 (Homo sapiens)"
  discrete-label: "false"
- compound: "COc1cc2occc2c2oc(=O)ccc12"
  tgt: "Cytochrome P450 3A4 (Homo sapiens)"
  discrete-label: "true"
- compound: "CNC1[C@@H](O)C(OC2C(N)C[C@H](N)[C@@H](O[C@@H]3OC(C(C)O)C(O)C(O)C3N)C2O)OC[C@]1(C)O (stereo partly specified)"
  tgt: "Cytochrome P450 3A4 (Homo sapiens)"
  discrete-label: "true"
- compound: "Cc1[nH]c2ccccc2c1CN(C)C"
  tgt: "Cytochrome P450 3A4 (Homo sapiens)"
  discrete-label: "true"
- compound: "OCC1CCCN2CCCCC12 (stereo unspecified)"
  tgt: "Cytochrome P450 3A4 (Homo sapiens)"
  discrete-label: "false"
- compound: "CC1C(=O)OC2CCN3CC=C(COC(=O)[C@](C)(O)[C@]1(C)O)C23 (stereo partly specified)"
  tgt: "Cytochrome P450 3A4 (Homo sapiens)"
  discrete-label: "false"
- compound: "COc1cc2c(c(OC)c1OC)-c1ccc(O)c(=O)cc1C(NC(C)=O)CC2 (stereo unspecified)"
  tgt: "Cytochrome P450 3A4 (Homo sapiens)"
  discrete-label: "false"
- compound: "CC(Cl)Cl"
  tgt: "Cytochrome P450 3A4 (Homo sapiens)"
  discrete-label: "false"
- compound: "CCC[CH2][Sn]([Cl])([Cl])[Cl]"
  tgt: "Cytochrome P450 3A4 (Homo sapiens)"
  discrete-label: "false"
- compound: "OCC1CO1 (stereo unspecified)"
  tgt: "Cytochrome P450 3A4 (Homo sapiens)"
  discrete-label: "false"
- compound: "Clc1ccccc1-c1cncnc1NCCc1cnc[nH]1"
  tgt: "Cytochrome P450 3A4 (Homo sapiens)"
  discrete-label: "true"
- compound: "CCCCCCC(C)OC(=O)COc1ccc(Cl)cc1Cl (stereo unspecified)"
  tgt: "Cytochrome P450 3A4 (Homo sapiens)"
  discrete-label: "false"
- compound: "CCCOC(=O)c1ccccc1C(=O)OCCC"
  tgt: "Cytochrome P450 3A4 (Homo sapiens)"
  discrete-label: "false"
- compound: "CC(=O)OC1CC[C@@]2(C)C3CC[C@]4(C)C(=O)CCC4C3CC[C@H]2C1 (stereo partly specified)"
  tgt: "Cytochrome P450 3A4 (Homo sapiens)"
  discrete-label: "false"
- compound: "C=C(Cl)Cl"
  tgt: "Cytochrome P450 3A4 (Homo sapiens)"
  discrete-label: "false"
- compound: "CC(=O)CC1CCCCN1 (stereo unspecified)"
  tgt: "Cytochrome P450 3A4 (Homo sapiens)"
  discrete-label: "false"
- compound: "CCC(=O)Nc1ccc(Cl)c(Cl)c1"
  tgt: "Cytochrome P450 3A4 (Homo sapiens)"
  discrete-label: "true"
- compound: "N#Cc1cccc(NC(=O)N2CC3(CCN(C(=O)Oc4ccccc4)CC3)C2)c1"
  tgt: "Cytochrome P450 3A4 (Homo sapiens)"
  discrete-label: "false"
- compound: "COc1cc(CNC(=O)CCCC/C=C\\C(C)C)ccc1O"
  tgt: "Cytochrome P450 3A4 (Homo sapiens)"
  discrete-label: "true"
- compound: "N#Cc1ccc(CN2CCC3(CC2)CCN(C(=O)Oc2ccccc2)CC3)cc1"
  tgt: "Cytochrome P450 3A4 (Homo sapiens)"
  discrete-label: "false"
- compound: "CC(=O)OC1CC[C@]2(C)C(CCC3C2CC[C@]2(C)C(C4=CC(=O)OC4)C(OC(C)=O)CC32O)C1 (stereo partly specified)"
  tgt: "Cytochrome P450 3A4 (Homo sapiens)"
  discrete-label: "false"
- compound: "CC(C)OC(=O)Nc1cccc(Cl)c1"
  tgt: "Cytochrome P450 3A4 (Homo sapiens)"
  discrete-label: "false"
- compound: "CNc1ccc(C(=O)CC(O)CCC(C)C2OC(=O)CC(O)CC(=O)CC(O)CC(O)CC(O)CC(O)CC3(O)CC(O)C(C(=O)OC)C(CC(O[C@@H]4OC(C)C(O)C(N)C4O)/C=C/C=C/C=C/C=C/C=C/C=C/C=C/C2C)O3)cc1 (stereo partly specified)"
  tgt: "Cytochrome P450 3A4 (Homo sapiens)"
  discrete-label: "false"
- compound: "CC(=O)OC1CC2C(C)(C)C(=O)C=C[C@]2(C)C2CC[C@]3(C)C(=CC(=O)OC3c3ccoc3)[C@]12C (stereo partly specified)"
  tgt: "Cytochrome P450 3A4 (Homo sapiens)"
  discrete-label: "true"
- compound: "CNC(Cc1c[nH]c2ccccc12)C(=O)O (stereo unspecified)"
  tgt: "Cytochrome P450 3A4 (Homo sapiens)"
  discrete-label: "false"
- compound: "NC(=S)Nc1ccccc1"
  tgt: "Cytochrome P450 3A4 (Homo sapiens)"
  discrete-label: "false"
- compound: "C=C1C2CC[C@@]3(C)C(c4ccoc4)OC(=O)C[C@@]13OC1CC(=O)C(C)(C)C(C(OC(C)=O)C(=O)OC)[C@@]12C (stereo partly specified)"
  tgt: "Cytochrome P450 3A4 (Homo sapiens)"
  discrete-label: "true"
- compound: "CC(=O)C1=C(O)C2C3c4c[nH]c5cccc(c45)CC3C(C)(C)N2C1=O (stereo unspecified)"
  tgt: "Cytochrome P450 3A4 (Homo sapiens)"
  discrete-label: "false"
- compound: "Clc1nc(Cl)nc(Nc2ccccc2Cl)n1"
  tgt: "Cytochrome P450 3A4 (Homo sapiens)"
  discrete-label: "false"
- compound: "CC1O[C@@H](OC2CC(O)[C@@]3(CO)C4C(O)C[C@@]5(C)C(C6=CC(=O)OC6)CC[C@]5(O)C4CC[C@]3(O)C2)C(O)C(O)C1O (stereo partly specified)"
  tgt: "Cytochrome P450 3A4 (Homo sapiens)"
  discrete-label: "false"
- compound: "CC(C)(C)[C@]1(O)C[C@@H]2OC(=O)C[C@@]23C(=O)O[C@@H]2OC(=O)[C@H](O)[C@]213"
  tgt: "Cytochrome P450 3A4 (Homo sapiens)"
  discrete-label: "false"
- compound: "C=C[C@H]1CN2CCC1C[C@@H]2C(O)c1ccnc2ccccc12 (stereo partly specified)"
  tgt: "Cytochrome P450 3A4 (Homo sapiens)"
  discrete-label: "false"
- compound: "C1CCC2CCCCC2C1 (stereo unspecified)"
  tgt: "Cytochrome P450 3A4 (Homo sapiens)"
  discrete-label: "false"
- compound: "C=C(C)C(=O)OCC1CO1 (stereo unspecified)"
  tgt: "Cytochrome P450 3A4 (Homo sapiens)"
  discrete-label: "false"
- compound: "CC(=O)C1CCC2C3CCC4CC(O)CCC4(C)C3CC(O)C12C (stereo unspecified)"
  tgt: "Cytochrome P450 3A4 (Homo sapiens)"
  discrete-label: "false"
- compound: "C=C(C)C1Cc2c(ccc3c(=O)c4c(oc23)COc2cc(OC)c(OC)cc2-4)O1 (stereo unspecified)"
  tgt: "Cytochrome P450 3A4 (Homo sapiens)"
  discrete-label: "false"
- compound: "c1ccc(N=Nc2ccccc2)cc1"
  tgt: "Cytochrome P450 3A4 (Homo sapiens)"
  discrete-label: "false"
- compound: "COc1c2c(cc3c1OCO3)CC[N+](C)=C2"
  tgt: "Cytochrome P450 3A4 (Homo sapiens)"
  discrete-label: "false"
- compound: "BrCCBr"
  tgt: "Cytochrome P450 3A4 (Homo sapiens)"
  discrete-label: "false"
